system: UACC-257 melanoma; assay: NCI tumour cell line growth inhibition, 48 h
Measured metric: TGI

• CC(C)(N)CO[C@H]1C[C@H]2CC[C@@]1(C)C2(C)C = 34.7 µM

Batch of 2 compounds: report TGI for each.
1. NCCC(=O)N[C@H](Cc1cc(O)c(O)c(SCC(NC(=O)CC[C@H](N)C(=O)O)C(=O)NCC(=O)O)c1)C(=O)O (stereo not given in full)
2. COc1cc2ccccc2c2cc([N+](=O)[O-])oc12

Result:
1. > 50 µM
2. 0.443 µM

----------
tested on: HL-60(TB) leukemia; experiment: NCI tumour cell line growth inhibition, 48 h
Measured metric: TGI

Worked cases, TGI given:
* Clc1ccccc1C(n1ncc2ccccc21)n1ncc2ccccc21 | 50.1 µM
* O=C(Cc1nc2ccccc2c(=O)n1-c1c(Cl)cccc1Cl)c1ccncc1 | 30.6 µM

Batch of 8 molecules: report TGI for each.
1. COC(=O)c1ccccc1/C=C1/Cc2cccc(C)c2C1=O
2. COc1cc(-c2n/c(=C\c3c(O)[nH]c4ccc(Cl)cc34)cc3c2=Nc2ccccc2-3)cc(OC)c1OC
3. Cc1csc(/C=N/NC(=O)c2nnn(-c3ccnc4c(C(F)(F)F)cccc34)c2C)c1
4. O=c1[nH]c(=O)n(C2CC(O)C(CO)O2)cc1OCCc1ccccc1 (configuration not stated)
5. COc1ccc(-c2nn(-c3ccc(NC(=O)c4ccc(Cl)c(C(F)(F)F)c4)cc3)cc2-c2ccncc2)cc1Cl
6. CCCCC1Cc2ccccc2-c2n1c1ccccc1[n+]2C (configuration not stated)
7. CN1CCN(c2ccc(-c3ccc4ncc(C#N)c(Nc5ccc(F)c(Cl)c5)c4c3)cc2)CC1
8. CN(C)c1ccc2c(c1)CN1C(=O)c3ccccc3C1=N2

Result:
1. > 100 µM
2. 38.1 µM
3. > 100 µM
4. > 100 µM
5. > 100 µM
6. 22.9 µM
7. 4.45 µM
8. > 100 µM

Batch of 4 molecules: report TGI for each.
1. CC(CN(C)C)C(=O)c1ccccc1C(=O)O (configuration not stated)
2. O=C(c1ccccc1)C(c1ccccc1)C1(O)C(=O)Nc2ccccc21 (configuration not stated)
3. Nc1ncnc2c1ncn2C1OC(CSC(F)(F)F)C(O)C1O (configuration not stated)
4. c1cc(-c2csc(-c3ccsc3)c2)cs1

Result:
1: 49.4 µM; 2: > 100 µM; 3: > 100 µM; 4: > 100 µM

Batch of 5 molecules: report TGI for each.
1. O=C(O)c1c[nH]c2c(=O)[nH]cnc12
2. NC(=O)c1cc(-c2ccncc2)cc(-c2ccccc2)c1N
3. NC(=O)C(c1ccccc1)N1OC2C(=O)N(Cc3ccccc3)C(=O)C2C1c1cccc(Oc2ccc(Cl)cc2)c1 (configuration not stated)
4. Cc1onc(-c2c(F)cccc2Cl)c1-c1ncc(-c2ccc(Cl)cc2)o1
5. C=CCn1c(=O)c2cnc(Nc3ccc(N4CCN(C)CC4)cc3)nc2n1-c1ccc2c(n1)[C@@](O)(CC)CC2

Result:
["> 100 µM", "> 25 µM", "51.2 µM", "> 100 µM", "1.3 µM"]

----------
system: KM12 colon; test: NCI tumour cell line growth inhibition, 48 h
Measured metric: TGI

Batch of 5 compounds: report TGI for each.
1. COc1ccc(CN2C(=O)C(Cc3cc(OC)c(OC)c(C)c3OC)NC(=O)/C2=C/c2cc(OC)c(OC)c(C)c2OC)cc1 (configuration not stated)
2. COc1ccc(/C(CCl)=C(\Nc2ccccc2)c2ccc(OC)c(OC)c2)cc1OC
3. COc1ccc(C2=C(Cl)c3cc(OC)c(OC)cc3C2=O)cc1OC
4. O=C(CC(=O)c1ccc([N+](=O)[O-])cc1)C(=O)Nc1nccs1
5. Cc1nc(Cl)c2sc(=S)n(-c3ccc(F)cc3)c2n1

Result:
1. > 100 µM
2. > 100 µM
3. 32.2 µM
4. > 100 µM
5. 25.3 µM

Batch of 8 compounds: report TGI for each.
1. COc1cccc(C(=O)Nc2ccc(CN3CCc4nc5cc(OC)c(OC)cc5cc43)cc2)c1
2. COc1ccc(NS(=O)c2ccc(-c3ccccc3)cc2)cc1 (configuration not stated)
3. C#CCn1c(=O)ccn(/C(=C\C(=O)OCC)C(=O)OCC)c1=O
4. COC(=O)c1ccc(Oc2nc3ccccc3nc2-c2cccs2)cc1
5. COC1(C(C)(C)C)C=C(C(C)(C)C)P(=O)(O)O1 (configuration not stated)
6. Nc1ccc(-c2ncc3cc(-c4cccc(-c5cc6cnc(-c7ccc(N)cc7)nc6c6ccccc56)c4)c4ccccc4c3n2)cc1
7. COc1ccc(Cl)cc1Nc1nc(C(F)(F)F)ccc1C(=O)N/N=C/c1ccc([N+](=O)[O-])cc1
8. CC1=CC[C@@H]2C(C)(C)C(=O)CC[C@@]2(C)[C@@H]1COc1ccc2ccc(=O)oc2c1

Result:
["5.29 µM", "> 100 µM", "48.8 µM", "> 100 µM", "> 100 µM", "> 100 µM", "4.98 µM", "23.7 µM"]

Batch of 7 compounds: report TGI for each.
1. COC(=O)Nc1nc2ccc(Oc3ccc4nc(NC(=O)OC)[nH]c4c3)cc2[nH]1
2. CC1(C)CC(=O)/C(=C/C2CCNC2=S)C(=O)N1 (configuration not stated)
3. Cn1cc(C2=C(c3c4n(c5ccccc35)CCCC4)C(=O)NC2=O)c2ccccc21
4. CCCCSN1C(=O)c2ccccc2C1=S
5. Nc1ccc2c(c1)C1=NNC(=O)CC1C2 (configuration not stated)
6. CC1SC(c2ccccc2)N(Nc2c3ccccc3nc3ccccc23)C1=O (configuration not stated)
7. COc1ccc(C2=Nc3ccccc3SC(C)C2)cc1 (configuration not stated)

Result:
1. > 62.5 µM
2. > 100 µM
3. > 25 µM
4. > 100 µM
5. > 100 µM
6. > 100 µM
7. > 100 µM

Batch of 2 compounds: report TGI for each.
1. Oc1c(C(Nc2cccc3ccccc23)c2ccccc2)ccc2cccnc12 (configuration not stated)
2. CNC(=S)N/N=C1\CC(c2ccccc2)Oc2ccccc21 (configuration not stated)

Result:
1. > 100 µM
2. > 100 µM

----------
system: SK-MEL-28 melanoma; assay: NCI tumour cell line growth inhibition, 48 h
Measured metric: GI50

• COc1ccc(Cl)cc1Nc1nc(C(F)(F)F)ccc1C(=O)N/N=C/c1ccc([N+](=O)[O-])cc1 = 2790 nM

Batch of 3 molecules: report GI50 for each.
1. NC(=O)c1cc(-c2ccncc2)cc(-c2ccccc2)c1N
2. CC(=O)[CH-]C(=O)c1ccccc1.CC(=O)[CH-]C(=O)c1ccccc1.COc1cccc([O-])c1[O-].[Ti+4]
3. O=C(/C=C/C12c3ccccc3C(c3ccccc31)C1C(=O)N(c3ccccc3)C(=O)C12)c1ccc(Cl)cc1 (centres undefined)

Result:
1: > 25000 nM; 2: 31000 nM; 3: 1980 nM

----------
Provide the reported TGI of each item.
tested on: CCRF-CEM leukemia; assay: NCI tumour cell line growth inhibition, 48 h
Answers are plain numbers, in µM.

• CCNC(C)(C)C(SS)c1ccc(Br)cc1 (stereo unspecified) = 60
• CN(C)CCNc1ccc2ncnc3c2c1C(=O)c1ccccc1-3 = 2.89
• COc1ccc(CN2C(=O)C(Cc3cc(OC)c(OC)c(C)c3OC)NC(=O)/C2=C/c2cc(OC)c(OC)c(C)c2OC)cc1 (stereo unspecified) = 71.1

Now for the molecule whose TGI we want.
Problem: Quick one: TGI of CC1(C)C(c2ccccc2)C12CCC1(C2=O)C(c2ccccc2)C1(C)C (stereo unspecified) ?
Result: 36.5

----------
system: RXF 393 renal; test: NCI tumour cell line growth inhibition, 48 h; in the data active = GI50 below about 0.43 µM; inactive = the rest
# valid calls are true (active), false (inactive); nothing else

Here are 8 compounds together with their reported answers.
- COc1ccc(C[n+]2c3ccccc3n3c4ccc(N)cc4ccc32)c(OC)c1OC: false
- Cc1c(C)c2c(c(C)c1NC(=O)/C=C\C(=O)O)CCC(C)(CCCC(C)CCCC(C)CCCC(C)C)O2 (centres undefined): false
- COc1cccc(C(=O)Nc2ccc(CN3CCc4nc5cc(OC)c(OC)cc5cc43)cc2)c1: false
- CC(=O)[CH-]C(=O)c1ccccc1.CC(=O)[CH-]C(=O)c1ccccc1.COc1cccc([O-])c1[O-].[Ti+4]: false
- CN(CCC#N)c1ccc(/C=C(\C#N)c2cccc(C(F)(F)F)c2)cc1: false
- COc1ccc(-c2nn(-c3ccc(NC(=O)c4ccc(Cl)c(C(F)(F)F)c4)cc3)cc2-c2ccncc2)cc1Cl: true
- CN1CCN(CCCOc2cccc3nc(Nc4ccc(Cl)c(F)c4)ccc23)CC1: false
- N#CC(C#N)=Cc1c(-c2ccccc2)[nH]c2ccccc12: false

Problem: Record lookup: outcome of this test for O=C(/C=C/C12c3ccccc3C(c3ccccc31)C1C(=O)N(c3ccccc3)C(=O)C12)c1ccc(Cl)cc1 (centres undefined) ?
Result: false

Problem: Please answer likewise for "CCCCN(CCCC)c1ccc(C(=N)c2ccc(N(C)C)cc2)cc1"
Result: false

Problem: Please answer likewise for "COc1cc(/C=N/Nc2ncnc3c2cnn3C(C)C)ccc1O"
Result: false
